study.system: Endothelial lipase (EL) (Homo sapiens (Human), UniProt Q9Y5X9)
Sequence (Q9Y5X9 21-500): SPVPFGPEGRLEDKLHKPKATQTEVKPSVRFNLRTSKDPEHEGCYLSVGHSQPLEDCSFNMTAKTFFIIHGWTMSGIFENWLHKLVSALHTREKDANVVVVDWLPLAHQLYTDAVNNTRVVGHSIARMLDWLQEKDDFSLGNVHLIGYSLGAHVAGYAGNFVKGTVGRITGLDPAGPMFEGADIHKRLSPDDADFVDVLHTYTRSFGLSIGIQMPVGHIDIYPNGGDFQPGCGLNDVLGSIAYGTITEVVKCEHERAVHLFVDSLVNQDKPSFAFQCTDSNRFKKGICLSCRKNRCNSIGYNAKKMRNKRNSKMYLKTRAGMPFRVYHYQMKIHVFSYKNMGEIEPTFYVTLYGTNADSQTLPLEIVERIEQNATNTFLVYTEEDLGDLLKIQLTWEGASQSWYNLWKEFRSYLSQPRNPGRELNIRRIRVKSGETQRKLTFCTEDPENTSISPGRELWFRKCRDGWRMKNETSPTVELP
assay.procedure: Endothelial lipase (EL) enzymatic assay with fluorescent substrate A10070 in DMPG vesicles
Assay type: biochemical
endpoint: IC50 (nM)
Express your answer in nM, writing the number without its unit.

Item COCCNC(=O)CNC(=O)C(c1nc2ccc(-c3ccn(C)c(=O)c3)cc2s1)S(=O)(=O)c1ccc(F)cc1 (stereo not drawn) [Example 463] has what recorded IC50?
24

Give the measured IC50 of Cn1ccc(-c2ccc3nc(C(C(=O)NCC(=O)NC4CC4)S(=O)(=O)c4ccc(F)cc4)sc3c2)cc1=O (stereo not drawn) [Example 458] .
32

Reported IC50 for Cc1ncc(-c2cc(C)c3nc(C(C(=O)NCC(=O)NC4CC4)S(=O)(=O)c4ccc(F)cc4)sc3c2)cn1 (stereo not drawn) [Example 469] : what is it?
41

Reference for the values: patent US10173991B2
